Collected IC50 values appear next to each entry.
test-target: PI3Kδ (p1106/p85a) Recombinant Human Protein (Homo sapiens (Human), UniProt O00329)
Sequence (O00329 whole entry): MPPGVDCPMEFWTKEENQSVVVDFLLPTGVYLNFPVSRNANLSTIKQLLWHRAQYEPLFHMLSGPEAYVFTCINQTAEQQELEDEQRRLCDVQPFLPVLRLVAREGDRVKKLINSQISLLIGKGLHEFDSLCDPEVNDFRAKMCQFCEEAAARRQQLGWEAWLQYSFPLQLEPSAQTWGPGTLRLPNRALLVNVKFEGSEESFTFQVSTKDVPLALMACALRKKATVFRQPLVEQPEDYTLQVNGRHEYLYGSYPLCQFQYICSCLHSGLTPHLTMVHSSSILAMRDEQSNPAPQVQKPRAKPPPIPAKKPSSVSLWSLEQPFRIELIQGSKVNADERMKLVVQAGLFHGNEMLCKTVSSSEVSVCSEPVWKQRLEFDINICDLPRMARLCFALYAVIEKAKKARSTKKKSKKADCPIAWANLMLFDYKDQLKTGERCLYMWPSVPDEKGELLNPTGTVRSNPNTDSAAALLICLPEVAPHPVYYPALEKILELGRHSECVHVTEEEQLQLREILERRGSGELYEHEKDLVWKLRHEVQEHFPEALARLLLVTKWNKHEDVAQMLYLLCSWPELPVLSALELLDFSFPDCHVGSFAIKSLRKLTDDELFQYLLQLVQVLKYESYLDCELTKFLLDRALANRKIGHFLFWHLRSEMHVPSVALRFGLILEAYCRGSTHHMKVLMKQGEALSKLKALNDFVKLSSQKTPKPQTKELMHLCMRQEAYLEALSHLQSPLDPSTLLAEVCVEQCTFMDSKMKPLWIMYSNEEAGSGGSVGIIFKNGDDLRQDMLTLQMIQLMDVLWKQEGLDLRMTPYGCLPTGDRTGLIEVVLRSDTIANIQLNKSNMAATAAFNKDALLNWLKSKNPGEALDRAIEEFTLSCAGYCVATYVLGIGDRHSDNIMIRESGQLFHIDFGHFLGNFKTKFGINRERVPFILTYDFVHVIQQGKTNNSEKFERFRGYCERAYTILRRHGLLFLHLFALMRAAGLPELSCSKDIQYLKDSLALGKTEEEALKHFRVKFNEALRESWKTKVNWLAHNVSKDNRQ
Sequence (P27986 whole entry partner): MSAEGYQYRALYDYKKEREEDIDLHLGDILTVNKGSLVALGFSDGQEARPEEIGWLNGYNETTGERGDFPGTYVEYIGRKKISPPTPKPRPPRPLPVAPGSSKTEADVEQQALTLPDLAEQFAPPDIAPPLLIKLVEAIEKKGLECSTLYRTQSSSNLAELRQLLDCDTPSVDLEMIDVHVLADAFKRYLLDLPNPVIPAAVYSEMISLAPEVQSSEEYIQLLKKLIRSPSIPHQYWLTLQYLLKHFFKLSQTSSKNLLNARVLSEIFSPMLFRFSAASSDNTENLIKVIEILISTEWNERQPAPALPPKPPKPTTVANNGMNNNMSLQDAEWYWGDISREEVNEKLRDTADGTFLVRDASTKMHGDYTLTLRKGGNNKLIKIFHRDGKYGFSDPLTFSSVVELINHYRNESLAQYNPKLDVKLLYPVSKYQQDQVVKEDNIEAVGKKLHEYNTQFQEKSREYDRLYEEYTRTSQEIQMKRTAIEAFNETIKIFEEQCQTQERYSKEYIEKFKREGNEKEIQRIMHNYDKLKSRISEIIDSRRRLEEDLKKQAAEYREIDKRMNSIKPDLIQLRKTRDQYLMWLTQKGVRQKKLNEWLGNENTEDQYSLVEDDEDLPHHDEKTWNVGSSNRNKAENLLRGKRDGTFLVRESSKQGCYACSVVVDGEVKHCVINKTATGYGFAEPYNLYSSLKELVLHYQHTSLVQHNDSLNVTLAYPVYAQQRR
protocol-text: PI3Kδ scintillation proximity assay
Type: biochemical
study-conditions: Table A2; scintillation proximity assay, recombinant human PI3Kδ

>  <compound>
Cc1ccc(C(O)(C(N)=O)C(F)(F)F)cc1-c1cnc(N)c(C#CCC(C)O)n1 (stereo not shown)

>  <IC50>
< 100 nM

$$$$

Note to self: IC50 recorded for Cc1cnc(C#Cc2nc(-c3cc(C(O)(C(N)=O)C(F)(F)F)ccc3C)cnc2N)cn1 (stereo not shown) was < 100 nM

Note to self: IC50 recorded for CCCc1nc(-c2cc(C(O)(C(N)=O)C(F)(F)F)ccc2C)cnc1N (stereo not shown) was 100 to 500 nM

Note to self: IC50 recorded for Cc1ccc(C(O)(C(N)=O)C(F)(F)F)cc1-c1cnc(N)c(C#Cc2cnccn2)n1 (stereo not shown) was < 100 nM

###

test-target: PI3Kδ (p1106/p85a) Recombinant Human Protein (Homo sapiens (Human))
protocol-text: PI3Kδ scintillation proximity assay
Format: biochemical
study-conditions: Table A2; scintillation proximity assay, recombinant human PI3Kδ
Counter-ions that a name gives are not always drawn.
Collected IC50 values appear next to each entry.

Past entries and their recorded results:
>  <compound>
Cc1ccc(C(O)(C(N)=O)C(F)(F)F)cc1-c1cnc(N)c(C#CC(C)(O)C(C)C)n1 (centres unmarked)

>  <IC50>
< 100 nM

$$$$
>  <compound>
Cc1ccc(C(O)(C(N)=O)C(F)(F)F)cc1-c1cnc(N)c(C#Cc2cncnc2)n1 (centres unmarked)

>  <IC50>
< 100 nM

$$$$
>  <compound>
Cc1ccc(C(O)(C(N)=O)C(F)(F)F)cc1-c1cnc(N)c(C(F)(F)F)n1 (centres unmarked) [Example 46, trifluoroacetate]

>  <IC50>
100 to 500 nM

$$$$
>  <compound>
Cc1ccc(C(O)(C(N)=O)C(F)(F)F)cc1-c1cnc(N)c(C#Cc2cn3ccnc3cn2)n1 (centres unmarked)

>  <IC50>
< 100 nM

$$$$
>  <compound>
Cc1ccc(C(O)(C(N)=O)C(F)(F)F)cc1-c1cnc(N)c(C#CC2(C)CCOCC2)n1 (centres unmarked)

>  <IC50>
< 100 nM

$$$$

Note to self: IC50 recorded for C/C=C\c1nc(-c2cc(C(O)(C(N)=O)C(F)(F)F)ccc2C)cnc1N (centres unmarked) was 100 to 500 nM

Note to self: IC50 recorded for Cc1ccc(C(O)(C(N)=O)C(F)(F)F)cc1-c1cnc(N)c(C#CC(C)(C)O)n1 (centres unmarked) was < 100 nM

Note to self: IC50 recorded for Cc1ccc(C(O)(C(N)=O)C(F)(F)F)cc1-c1cnc(N)c(C#Cc2ccn[nH]2)n1 (centres unmarked) was < 100 nM

###

test-target: PI3Kγ (p110γ) Recombinant Human Protein (Homo sapiens (Human), UniProt P48736)
Sequence (P48736 whole entry): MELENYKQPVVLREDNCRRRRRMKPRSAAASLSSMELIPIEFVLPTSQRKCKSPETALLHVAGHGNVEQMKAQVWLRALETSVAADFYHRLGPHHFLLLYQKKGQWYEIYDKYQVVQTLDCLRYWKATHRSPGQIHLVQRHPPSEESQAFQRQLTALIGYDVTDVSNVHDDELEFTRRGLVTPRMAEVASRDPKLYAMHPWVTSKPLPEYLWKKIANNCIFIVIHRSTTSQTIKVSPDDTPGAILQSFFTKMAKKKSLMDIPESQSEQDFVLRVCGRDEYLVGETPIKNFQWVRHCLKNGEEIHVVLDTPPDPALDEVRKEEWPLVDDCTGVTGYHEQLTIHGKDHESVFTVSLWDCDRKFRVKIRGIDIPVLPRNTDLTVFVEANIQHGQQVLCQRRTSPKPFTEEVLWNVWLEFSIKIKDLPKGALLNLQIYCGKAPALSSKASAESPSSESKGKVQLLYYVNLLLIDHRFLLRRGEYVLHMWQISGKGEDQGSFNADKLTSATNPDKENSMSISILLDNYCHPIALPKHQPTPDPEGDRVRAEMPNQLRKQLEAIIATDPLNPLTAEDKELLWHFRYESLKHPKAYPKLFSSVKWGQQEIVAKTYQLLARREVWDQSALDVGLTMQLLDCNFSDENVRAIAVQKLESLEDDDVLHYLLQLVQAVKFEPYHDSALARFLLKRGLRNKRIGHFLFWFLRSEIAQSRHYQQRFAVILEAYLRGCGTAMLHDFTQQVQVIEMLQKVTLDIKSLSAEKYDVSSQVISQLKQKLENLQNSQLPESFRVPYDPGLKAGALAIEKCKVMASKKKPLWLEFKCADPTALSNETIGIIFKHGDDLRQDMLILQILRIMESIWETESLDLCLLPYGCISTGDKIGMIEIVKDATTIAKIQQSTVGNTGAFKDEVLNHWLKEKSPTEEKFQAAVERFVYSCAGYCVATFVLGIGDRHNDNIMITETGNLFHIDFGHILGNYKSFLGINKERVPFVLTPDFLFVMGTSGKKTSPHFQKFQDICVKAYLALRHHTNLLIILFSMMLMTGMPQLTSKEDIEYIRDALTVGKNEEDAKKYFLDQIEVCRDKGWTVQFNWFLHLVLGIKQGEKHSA
protocol-text: PI3K-γ scintillation proximity assay
Assay type: biochemical
study-conditions: Table A1; scintillation proximity assay, recombinant human p110γ
Counter-ions that a name gives are not always drawn.
measured-parameter: IC50

Past entries and their recorded results:
>  <compound>
Cc1ccc(C(O)(C(N)=O)C(F)(F)F)cc1-c1cnc(N)c(C(=O)N[C@H]2CCOC2)n1 (stereo partly drawn) [Example 11, trifluoroacetate]

>  <IC50>
< 100 nM

$$$$
>  <compound>
Cc1ccc(C(O)(C(N)=O)C(F)(F)F)cc1-c1cnc(N)c(C(=O)NC2CC3CCC2O3)n1 (single isomer, unassigned)

>  <IC50>
< 100 nM

$$$$

Here is the next item to consider.
Record Cc1ccc(C(O)(C(N)=O)C(F)(F)F)cc1-c1cnc(N)c(C(=O)NC23CC(C#N)(C2)C3)n1 (stereo not drawn) [Example 23, trifluoroacetate] has PI3Kγ (p110γ) Recombinant Human Protein (Homo sapiens (Human), UniProt P48736) IC50 equal to < 100 nM

Sourced from patent US20250388553A1
